# measurement target: Non-relevant antigen
# assay comment: ELISA, purified VHH
measured property: ELISA signal
// return just the number, without any unit appended

Data request, read-out ELISA signal, for RWB12 (VHH, Camel VHH; tag not described; also called camel antibody RWB12) VHH: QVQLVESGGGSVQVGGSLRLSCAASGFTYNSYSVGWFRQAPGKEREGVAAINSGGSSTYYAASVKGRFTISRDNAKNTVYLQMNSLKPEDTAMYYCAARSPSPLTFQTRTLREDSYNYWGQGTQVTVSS
0.0495

Would you kindly share the measured ELISA signal for RWH1 (VHH, Camel VHH; tag not described; also called camel antibody RWH1) VHH: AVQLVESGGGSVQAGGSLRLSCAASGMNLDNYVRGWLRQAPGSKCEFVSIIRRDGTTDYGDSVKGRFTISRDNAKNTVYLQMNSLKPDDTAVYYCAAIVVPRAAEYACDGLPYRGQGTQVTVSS ?
0.131

Bench note: what ELISA signal did RWG4 (VHH, Camel VHH; tag not described; also called camel antibody RWG4) VHH: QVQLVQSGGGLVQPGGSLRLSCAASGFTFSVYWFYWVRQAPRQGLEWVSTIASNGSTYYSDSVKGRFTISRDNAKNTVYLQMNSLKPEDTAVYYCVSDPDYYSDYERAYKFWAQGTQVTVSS show?
0.0541

Query (binder): RWC4 (VHH, Camel VHH; tag not described; also called camel antibody RWC4) VHH: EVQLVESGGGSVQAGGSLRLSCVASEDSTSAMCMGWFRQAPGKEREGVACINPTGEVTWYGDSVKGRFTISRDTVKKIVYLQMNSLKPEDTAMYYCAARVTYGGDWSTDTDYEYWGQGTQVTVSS ; field requested: ELISA signal
0.0719

# get_value(readout='ELISA signal', item= RWG8 (VHH, Camel VHH; tag not described; also called camel antibody RWG8) VHH: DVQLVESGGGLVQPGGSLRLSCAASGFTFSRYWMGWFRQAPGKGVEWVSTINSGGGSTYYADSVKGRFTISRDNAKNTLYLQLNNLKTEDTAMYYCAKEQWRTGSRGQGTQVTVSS )
0.0562

Fill in the blank: the reported ELISA signal of RWB2 (VHH, Camel VHH; tag not described; also called camel antibody RWB2) VHH: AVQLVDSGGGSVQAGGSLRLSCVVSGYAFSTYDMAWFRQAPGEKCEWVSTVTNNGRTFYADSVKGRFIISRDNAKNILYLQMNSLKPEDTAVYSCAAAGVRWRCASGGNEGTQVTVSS is ____.
0.115
